System: Amaranthus retroflexus
PROCEDURE_TEXT: Post-emergence herbicidal action, AMARE
Type: in vivo
CONDITIONS_USED: 80 g/ha, Table D
Could you please report measured herbicidal activity AMARE for the items listed next?
Answers are plain numbers, in %.

These solved cases illustrate the format of a correct answer.
> print(dat)
                                   compound             endpoint.label  data.value
1        CSc1c(C(F)F)ccc(C(=O)Nc2nnnn2C)c1F  herbicidal activity AMARE         100
2  Cc1c(C(=O)Nc2ncnn2C)ccc(C(F)F)c1S(C)(=O)=O  herbicidal activity AMARE         100
3  Cn1nnnc1NC(=O)c1ccc(C(F)F)c(S(C)(=O)=O)c1F  herbicidal activity AMARE         100
4      CCSc1c(C(F)F)ccc(C(=O)Nc2ncnn2C)c1Br  herbicidal activity AMARE         100
5  CCS(=O)(=O)c1c(C(F)F)ccc(C(=O)Nc2ncnn2C)c1C  herbicidal activity AMARE         100
6  CCc1c(C(=O)Nc2nnnn2C)ccc(C(F)F)c1[S+]([O-])CC (stereo not shown)  herbicidal activity AMARE         100

Each compound below has a reported value. Please supply its herbicidal activity AMARE.
1. CCSc1c(C(F)F)ccc(C(=O)Nc2nnnn2CC)c1CC
2. CCn1nnnc1NC(=O)c1ccc(C(F)F)c(SC)c1C

## Output
100
100

---

Give measured Herbicidal activity STEME for each item. Keep answers brief.
Test system: Stellaria media
PROCEDURE_TEXT: Pre-emergence herbicidal action, STEME
Assay type: in vivo
CONDITIONS_USED: dosage 320 g/ha, scored visually after 3 weeks vs untreated controls
Numbers only, in %.

> print(dat)
                                   molecule  data.value
1  Cc1c(C(=O)Nc2ncnn2C)ccc(C(F)F)c1S(C)(=O)=O         100
2  CCS(=O)(=O)c1c(C(F)F)ccc(C(=O)Nc2nonc2Cl)c1C          90
3   CCSc1c(C(F)F)ccc(C(=O)Nc2nnnn2C)c1C1CC1         100

Below is a list of molecules. For each, state its recorded Herbicidal activity STEME.
1. CC[S+]([O-])c1c(C(F)F)ccc(C(=O)Nc2ncnn2C)c1C1CC1 (centres unmarked)
2. CSc1c(C(F)F)ccc(C(=O)Nc2nnc(C)o2)c1C
3. CCSc1c(C(F)F)ccc(C(=O)Nc2nnnn2CC)c1F
4. CC[S+]([O-])c1c(C(F)F)ccc(C(=O)Nc2ncnn2C)c1Cl (centres unmarked)
5. CCc1c(C(=O)Nc2nnc(C)o2)ccc(C(F)F)c1S(=O)(=O)CC
6. CCc1c(C(=O)Nc2nnnn2C)ccc(C(F)F)c1SC
7. CCn1nnnc1NC(=O)c1ccc(C(F)F)c(SC)c1Br
8. CCSc1c(C(F)F)ccc(C(=O)Nc2ncnn2C)c1C

## Output
1. 90
2. 80
3. 100
4. 100
5. 100
6. 100
7. 100
8. 100

List Herbicidal activity STEME for every entry below, keeping the order given.
1. Cc1c(C(=O)Nc2ncnn2C)ccc(C(F)F)c1[S+](C)[O-] (centres unmarked)
2. CCSc1c(C(F)F)ccc(C(=O)Nc2nonc2Cl)c1C
3. CC[S+]([O-])c1c(C(F)F)ccc(C(=O)Nc2nnnn2C)c1C1CC1 (centres unmarked)
4. CCn1nnnc1NC(=O)c1ccc(C(F)F)c([S+](C)[O-])c1Cl (centres unmarked)
5. Cn1ncnc1NC(=O)c1ccc(C(F)F)c(S(C)(=O)=O)c1I
6. CCn1nnnc1NC(=O)c1ccc(C(F)F)c(S(C)(=O)=O)c1Cl
7. Cc1c(C(=O)Nc2nnnn2C)ccc(C(F)F)c1[S+](C)[O-] (centres unmarked)
8. Cn1nnnc1NC(=O)c1ccc(C(F)F)c(S(C)(=O)=O)c1F

## Output
1: 100; 2: 90; 3: 100; 4: 100; 5: 100; 6: 90; 7: 90; 8: 100

Respectfully, I request Herbicidal activity STEME for each entry included below.
1. CCc1c(C(=O)Nc2nnnn2CC)ccc(C(F)F)c1SC
2. CCc1c(C(=O)Nc2nnc(C)o2)ccc(C(F)F)c1[S+]([O-])CC (centres unmarked)
3. CSc1c(C(F)F)ccc(C(=O)Nc2ncnn2C)c1Br

## Output
[100, 100, 90]

---

System: Alopecurus myosuroides
PROCEDURE_TEXT: Pre-emergence herbicidal action, ALOMY
Format: in vivo
CONDITIONS_USED: dosage 320 g/ha, scored visually after 3 weeks vs untreated controls
ENDPOINT_LABEL: herbicidal activity ALOMY (%)
Give bare numbers, in %.

Example cases with answers are listed next.
> print(dat)
                                   compound  result.unit  data.value
1       CCc1c(C(=O)Nc2nnnn2C)ccc(C(F)F)c1SC            %         100
2  CCS(=O)(=O)c1c(C(F)F)ccc(C(=O)Nc2nnc(C)o2)c1Br            %         100
3       CCn1nnnc1NC(=O)c1ccc(C(F)F)c(SC)c1F            %          90

Quick one: give me herbicidal activity ALOMY for each item below, same order please.
1. CCn1nnnc1NC(=O)c1ccc(C(F)F)c([S+]([O-])CC)c1C (centres unmarked)
2. CC[S+]([O-])c1c(C(F)F)ccc(C(=O)Nc2nnnn2C)c1C1CC1 (centres unmarked)

## Output
1. 100
2. 100

---

Tested on: Amaranthus retroflexus
PROCEDURE_TEXT: Post-emergence herbicidal action, AMARE
Assay type: in vivo
CONDITIONS_USED: 80 g/ha, Table D
What herbicidal activity AMARE was measured for each of the following?
Numbers only, in %.

> print(dat)
                                   compound  data.value
1     CCSc1c(C(F)F)ccc(C(=O)Nc2nnnn2CC)c1Br         100
2  CCn1nnnc1NC(=O)c1ccc(C(F)F)c(S(C)(=O)=O)c1F          90
3     CSc1c(C(F)F)ccc(C(=O)Nc2nnc(C)o2)c1Cl          90
4  CCc1c(C(=O)Nc2nnnn2CC)ccc(C(F)F)c1[S+]([O-])CC (centres unmarked)         100
5       CSc1c(C(F)F)ccc(C(=O)Nc2ncnn2C)c1Br         100
6  CCn1nnnc1NC(=O)c1ccc(C(F)F)c([S+]([O-])CC)c1F (centres unmarked)          90

I would be grateful if you could provide herbicidal activity AMARE for each of the following entries.
1. Cn1nnnc1NC(=O)c1ccc(C(F)F)c(S(C)(=O)=O)c1Cl
2. CC[S+]([O-])c1c(C(F)F)ccc(C(=O)Nc2nnc(C)o2)c1I (centres unmarked)

## Output
100
100

Value sought for every listed compound: herbicidal activity AMARE.
1. CCSc1c(C(F)F)ccc(C(=O)Nc2ncnn2C)c1F
2. CC[S+]([O-])c1c(C(F)F)ccc(C(=O)Nc2nnnn2C)c1C1CC1 (centres unmarked)
3. CCS(=O)(=O)c1c(C(F)F)ccc(C(=O)Nc2nnc(C)o2)c1Br
4. CC[S+]([O-])c1c(C(F)F)ccc(C(=O)Nc2nnnn2C)c1Br (centres unmarked)
5. CCSc1c(C(F)F)ccc(C(=O)Nc2nnnn2C)c1C
6. CSc1c(C(F)F)ccc(C(=O)Nc2nnnn2C)c1Cl

## Output
1: 100; 2: 100; 3: 100; 4: 100; 5: 100; 6: 80

Could I get herbicidal activity AMARE for every one of these entries?
1. CCn1nnnc1NC(=O)c1ccc(C(F)F)c(S(=O)(=O)CC)c1C
2. CCc1c(C(=O)Nc2nnnn2C)ccc(C(F)F)c1S(C)(=O)=O
3. CC[S+]([O-])c1c(C(F)F)ccc(C(=O)Nc2nnnn2C)c1C (centres unmarked)

## Output
1. 90
2. 100
3. 100

Go through the list and state herbicidal activity AMARE for each entry.
1. CSc1c(C(F)F)ccc(C(=O)Nc2nnnn2C)c1Br
2. CCc1c(C(=O)Nc2nnnn2CC)ccc(C(F)F)c1S(=O)(=O)CC
3. CSc1c(C(F)F)ccc(C(=O)Nc2nonc2C)c1C

## Output
1. 90
2. 100
3. 80

Dear colleague, could you please provide herbicidal activity AMARE for the compounds listed below?
1. CC[S+]([O-])c1c(C(F)F)ccc(C(=O)Nc2nnnn2C)c1Cl (centres unmarked)
2. CCc1c(C(=O)Nc2nnnn2C)ccc(C(F)F)c1[S+](C)[O-] (centres unmarked)
3. CCn1nnnc1NC(=O)c1ccc(C(F)F)c([S+](C)[O-])c1Br (centres unmarked)

## Output
100
90
100

---

Tested on: Stellaria media
PROCEDURE_TEXT: Pre-emergence herbicidal action, STEME
Type: in vivo
CONDITIONS_USED: dosage 320 g/ha, scored visually after 3 weeks vs untreated controls
ENDPOINT_LABEL: Herbicidal activity STEME (%)
One number for each entry, in %.

> print(dat)
                                   molecule           target  result.unit  data.value
1  CCSc1c(C(F)F)ccc(C(=O)Nc2nnnn2CC)c1C1CC1 [Example 2-28]  Stellaria media            %         100
2  CCc1c(C(=O)Nc2nnnn2CC)ccc(C(F)F)c1S(C)(=O)=O [Example 2-15]  Stellaria media            %         100
3  CC[S+]([O-])c1c(C(F)F)ccc(C(=O)Nc2nonc2Cl)c1C (stereo not shown) [Example 6-5]  Stellaria media            %          90

For every item below, please supply its Herbicidal activity STEME.
1. CCc1c(C(=O)Nc2nnnn2C)ccc(C(F)F)c1[S+](C)[O-] (stereo not shown) [Example 1-14]
2. CCn1nnnc1NC(=O)c1ccc(C(F)F)c(SC)c1F [Example 2-37]
3. CSc1c(C(F)F)ccc(C(=O)Nc2ncnn2C)c1F [Example 4-37]
4. CCSc1c(C(F)F)ccc(C(=O)Nc2ncnn2C)c1F [Example 4-40]
5. CCS(=O)(=O)c1c(C(F)F)ccc(C(=O)Nc2ncnn2C)c1C1CC1 [Example 4-30]

## Output
1. 100
2. 100
3. 100
4. 100
5. 90
